Recorded Release rate per thickness of LDPE pouch by entry
- ASSAY_EXPLANATION: Release rate from LDPE sachets by gravimetry
- Assay type: physicochemical
- STATED_CONDITIONS: 100 μm LDPE pouch; 22° C., constant, laboratory
EXPERIMENTAL_READOUT: Release rate per thickness of LDPE pouch (mg/day)

- CC(C)CCO: 3
- CC(C)CO: 4
- CCOC(=O)CC [Ethyl propionate]: 321
- CCOC(C)=O [Ethyl acetate]: 302.7
- CCC(C)CO (stereo not drawn): 4.1
- CCCC(=O)OCC [Ethyl butyrate]: 295

---

- ASSAY_EXPLANATION: Release rate from LDPE sachets by gravimetry
- Type: physicochemical
- STATED_CONDITIONS: 150 μm LDPE pouch; 22° C., constant, laboratory
Recorded Release rate per thickness of LDPE pouch by entry
EXPERIMENTAL_READOUT: Release rate per thickness of LDPE pouch

- CC(C)CO: 2 mg/day
- CCCC(=O)OCC [Ethyl butyrate]: 171 mg/day
- CCOC(C)=O [Ethyl acetate]: 180.6 mg/day
- CC(C)CCO: 2 mg/day
- CCC(C)CO (stereo not drawn): 2.1 mg/day
- CCOC(=O)CC [Ethyl propionate]: 200 mg/day

These measurements were taken from patent US20240000071A1.
